The reported numbers originate from patent US6380229B1.

tested on: fructose-induced hyperlipidemic rats; assay: Hypotriglyceridemic activity in fructose-induced hyperlipidemic rats; type: in vivo, Sprague Dawley rats; details: serum; 30 mg/kg p.o. once a day for 7 days; blood 2 hours after final administration
This listing pairs compounds with measured Triglyceride (% Reduction).
Lab book: enter the figure in %, no units written.

smi | property | u | measurement
CC(=Cc1ccc(/C=C2/SC(=NC#N)NC2=O)cc1)c1ccccc1 | Triglyceride (% Reduction) | % | 42

Lookup result for `CC(=Cc1ccccc1)c1ccc(/C=C2/SC(=NC#N)NC2=O)cc1` ; measured Triglyceride (% Reduction): 67

Lookup result for `COc1ccc(C=Cc2ccc(/C=C3/SC(=NC#N)NC3=O)cc2)cc1` ; measured Triglyceride (% Reduction): 47

Lookup result for `N#CN=C1NC(=O)/C(=C\c2ccc(C=Cc3ccccc3F)cc2)S1` ; measured Triglyceride (% Reduction): 47

Lookup result for `N#CN=C1NC(=O)/C(=C\c2ccc(C=Cc3ccccc3)cc2)S1` ; measured Triglyceride (% Reduction): 47

====

tested on: high cholesterol-fed hamsters; experiment: Lipid lowering effects in high cholesterol-fed hamsters; format: in vivo, Male Syrian hamsters; settings: Table 4 (Example 65); serum; 15 mg/kg p.o.
property: Triglyceride (% Reduction) (%)
Lab book: enter the figure in %, no units written.

Examples with answers:
smi | Triglyceride (% Reduction) [%]
N#CN=C1NC(=O)C(=Cc2ccc(COCc3ccccc3)cc2)S1 | 17
N#CN=C1NC(=O)C(=Cc2ccc(-c3cc4cc(Cl)ccc4o3)cc2)S1 | 24
Cc1ccc(C)c(Oc2ccc(C=C3SC(=NC#N)NC3=O)cc2)c1 | 15
COc1ccc(C=Cc2ccc(/C=C3/SC(=NC#N)NC3=O)cc2)cc1 | 61

Measured Triglyceride (% Reduction) for this entry `CC(=Cc1ccccc1)c1ccc(/C=C2/SC(=NC#N)NC2=O)cc1` on high cholesterol-fed hamsters: 57

Measured Triglyceride (% Reduction) for this entry `N#CN=C1NC(=O)C(=Cc2ccc(Sc3ccccc3)cc2)S1` on high cholesterol-fed hamsters: 12
